Molecular target: OsWOX13 (Oryza sativa, UniProt Q5QMM3 1-267)
Sequence: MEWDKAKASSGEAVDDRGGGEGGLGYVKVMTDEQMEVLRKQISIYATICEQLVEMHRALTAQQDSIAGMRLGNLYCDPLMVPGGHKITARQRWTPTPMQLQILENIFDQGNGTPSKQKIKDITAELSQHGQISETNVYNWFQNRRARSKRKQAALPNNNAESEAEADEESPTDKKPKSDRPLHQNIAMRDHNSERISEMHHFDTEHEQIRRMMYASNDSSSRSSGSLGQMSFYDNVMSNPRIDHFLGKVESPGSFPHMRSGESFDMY
Assay: protein-binding microarray (RPBM); PBS, 2% BSA, 51.3 ng/ul salmon testes DNA, 50 uM zinc acetate, 200 nM TF, 25 C, 1 h; high values mean tight binding
Conditions: protein: recombinant; tags: N-terminal polyhistidine and DsRed monomer fusion (pET32a); label: CyDye5-dUTP incorporated in the synthesized complementary strand; 3' TTTTT single-stranded linker to array surface; dsDNA, one strand shown
In all, about 35,000 sequences were measured (“fluorescence intensity (a.u.)”: median about 10,000, highest 2% from about 52,000 on). This excerpt belongs to a sample that is enriched for the highest values.
For each entry below, report its binding signal value.

INPUT: Entry TCAAACAAACCAATCAATCAATCAATCAGGGGATTCTTACCGGAGTCACCTAGTGCAG has what binding signal?
OUTPUT: 42300 fluorescence intensity (a.u.)

INPUT: Please give the result for TGCTAATGACTGATTAATTAGGCTTAATAAATTCGTCTTGCGGAGTCACCTAGTGCAG too.
OUTPUT: 35300 fluorescence intensity (a.u.)

INPUT: Please give the result for ACAACCAACTGATTGAAGACGTCCACGTGCTTCCTAAGATCGGAGTCACCTAGTGCAG too.
OUTPUT: 35200 fluorescence intensity (a.u.)

INPUT: Please give the result for TAGGATTATGTTGGTGATGATGATGACTAGTGTGCCTGAACGGAGTCACCTAGTGCAG too.
OUTPUT: 4220 fluorescence intensity (a.u.)

INPUT: Please give the result for GGGAGTAATTGAATATGCCTTTTGGGCTGCCATCTGCCCACGGAGTCACCTAGTGCAG too.
OUTPUT: 26800 fluorescence intensity (a.u.)

INPUT: Please give the result for GTACAATTTTCATAATTTGCATAAATCGAAAAGAAAAGTGCGGAGTCACCTAGTGCAG too.
OUTPUT: 12400 fluorescence intensity (a.u.)

INPUT: Please give the result for GGCTAATAGTAGGTTGATTAGTCCTTATTGTGCTTGCCCTCGGAGTCACCTAGTGCAG too.
OUTPUT: 28500 fluorescence intensity (a.u.)

INPUT: Please give the result for ATTAAATAATTTCTTTGATAAAATTGTTTTGCAGGCATATCGGAGTCACCTAGTGCAG too.
OUTPUT: 22300 fluorescence intensity (a.u.)

INPUT: Please give the result for AACCAGATTCACCGTGATTAGTTTCACCCTAGTCTAGTCTCGGAGTCACCTAGTGCAG too.
OUTPUT: 10800 fluorescence intensity (a.u.)

INPUT: Please give the result for GTTGATTAGCATATATTATTGGTTGCATGTTAGGCTTCCACGGAGTCACCTAGTGCAG too.
OUTPUT: 54700 fluorescence intensity (a.u.)

INPUT: Please give the result for GCAAATTAATTAACTAATTAATTAAACACCCAACTAATCTCGGAGTCACCTAGTGCAG too.
OUTPUT: 63700 fluorescence intensity (a.u.)

INPUT: Please give the result for TTAATTGTAAGTTTAACTATTGCTACTTCGCTTGCAGCGTCGGAGTCACCTAGTGCAG too.
OUTPUT: 13600 fluorescence intensity (a.u.)

INPUT: Please give the result for GGCAATCAATCAACCAATCACCAGCTTACAATTCGGCCACCGGAGTCACCTAGTGCAG too.
OUTPUT: 59300 fluorescence intensity (a.u.)

INPUT: Please give the result for GTGCCATTAATTTTGACTACTACTTGTGTGTCCTATCAAACGGAGTCACCTAGTGCAG too.
OUTPUT: 7280 fluorescence intensity (a.u.)

INPUT: Please give the result for TGTTTATAACTGTAATGACATATAAGCACCACATAGGGGCCGGAGTCACCTAGTGCAG too.
OUTPUT: 5560 fluorescence intensity (a.u.)

INPUT: Please give the result for CACCCAATCACAATCCAACCCACGCCATTGCAACCAAATTCGGAGTCACCTAGTGCAG too.
OUTPUT: 4130 fluorescence intensity (a.u.)

INPUT: Please give the result for TCTAAACATATCCAGATAAATTATTCTGAGATGAGTCTCACGGAGTCACCTAGTGCAG too.
OUTPUT: 3670 fluorescence intensity (a.u.)

INPUT: Please give the result for GGCTTAATTGTTGATTAAACATCAGGCTCTTCTTGCATATCGGAGTCACCTAGTGCAG too.
OUTPUT: 54900 fluorescence intensity (a.u.)

INPUT: Please give the result for CTTGATTAGTAGTTGGTTGCTCTTCTTCTTGTTCTTGGTTCGGAGTCACCTAGTGCAG too.
OUTPUT: 64200 fluorescence intensity (a.u.)

INPUT: Please give the result for CTGGTTCTTGATTATTATTAGGATTAGTTTGTTCCTTTGTCGGAGTCACCTAGTGCAG too.
OUTPUT: 16900 fluorescence intensity (a.u.)

INPUT: Please give the result for ACCCAAAATTAACTCTAAACTTAAGTTTCAAAATCTAAATCGGAGTCACCTAGTGCAG too.
OUTPUT: 7640 fluorescence intensity (a.u.)

INPUT: Please give the result for CAAAACTGAGTACATTGGATTGGACCATCTAAAAGGAAATCGGAGTCACCTAGTGCAG too.
OUTPUT: 4580 fluorescence intensity (a.u.)

INPUT: Please give the result for CTATACAACAAATCATTAATTAGGCTCAAAAGAAAGAAAGCGGAGTCACCTAGTGCAG too.
OUTPUT: 11100 fluorescence intensity (a.u.)

INPUT: Please give the result for GACAAATTATGGCATTTTAAAATCCAAAATATGGAAAGGGCGGAGTCACCTAGTGCAG too.
OUTPUT: 14600 fluorescence intensity (a.u.)

INPUT: Please give the result for TTGAGCACTAATTAATCATTAGGTGGCCTAATCAACAGCTCGGAGTCACCTAGTGCAG too.
OUTPUT: 22000 fluorescence intensity (a.u.)

INPUT: Please give the result for TCTCTTACTCTTGTTGATTGACACCGGTCATCAGTAGTTCCGGAGTCACCTAGTGCAG too.
OUTPUT: 43200 fluorescence intensity (a.u.)

INPUT: Please give the result for ATCTTAATTGAAACAAACACAGCTTTAGTATATGCATGTCCGGAGTCACCTAGTGCAG too.
OUTPUT: 58900 fluorescence intensity (a.u.)

INPUT: Please give the result for CCCATGTAGATTGGGCCTGCTTAGTGAAGTCTCACGTAGCCGGAGTCACCTAGTGCAG too.
OUTPUT: 5240 fluorescence intensity (a.u.)

INPUT: Please give the result for AATCAACTAACTAATCATGGGATTAACCAAAACTAATTCTCGGAGTCACCTAGTGCAG too.
OUTPUT: 3800 fluorescence intensity (a.u.)

INPUT: Please give the result for AACCCAATAACGGTAACTGACAAAACGATGAAAACCAAACCGGAGTCACCTAGTGCAG too.
OUTPUT: 4460 fluorescence intensity (a.u.)

INPUT: Please give the result for AATGCTAATGACAGATTAATTAGGCTTAATAAATTTGTCTCGGAGTCACCTAGTGCAG too.
OUTPUT: 29500 fluorescence intensity (a.u.)

INPUT: Please give the result for ACTATTCTATTATGATGATTAGGCTGTTATTGGTTGAAGTCGGAGTCACCTAGTGCAG too.
OUTPUT: 7170 fluorescence intensity (a.u.)

INPUT: Please give the result for TGGTCAGATAGCTAGATTGATATCCCTCTCTCTCTCTCACCGGAGTCACCTAGTGCAG too.
OUTPUT: 13900 fluorescence intensity (a.u.)

INPUT: Please give the result for TGCTAATGACTGATTAATTAGGCTTAATAAATTTGTCTCGCGGAGTCACCTAGTGCAG too.
OUTPUT: 64800 fluorescence intensity (a.u.)

INPUT: Please give the result for ATTACTTATCTGATTTACGATCCGACTTAACCACTGTATTCGGAGTCACCTAGTGCAG too.
OUTPUT: 4150 fluorescence intensity (a.u.)

INPUT: Please give the result for TGGAGTGGTGATTTGCTCTCTCTTGAGTGTTGATTAGTGGCGGAGTCACCTAGTGCAG too.
OUTPUT: 9250 fluorescence intensity (a.u.)
